# Ki per record follows
TARGET_DESC: Human α-thrombin (human, UniProt P00734 328-363; P00734 364-622)
PROTOCOL_TEXT: inhibition of thrombin-catalysed hydrolysis of chromogenic substrate S-2366, 37 °C
No end group written: not given here.
RECORDED_ENDPOINT: Ki

BINDER	VALUE
IRFTDGSGSGSGSGSGSGDFEEIPEEYLQ (ends and bridges not checked, (GS)6 linker) [MH2-allGS]	50 nM
IRFTDGEGTPNPESHNNGDFEEIPEEYLQ (ends and bridges not checked; also: uniformly 15N-labelled, Linker HV2(42-53); Uniformly 15N-labelled for the NMR work; also called mini-hirudin 2) [MH2]	67 nM
IRFTDGEGTGSGSGSGSGDFEEIPEEYLQ (ends and bridges not checked, GEGT(GS)4 linker; comparative control) [MH2-GS]	59 nM
